Each recorded value in this set is attributed to paper PMC4305367.

protocol summary: clinical
run conditions: male, human, in vivo, 200 mg, C max
result type: Cmax (µg/mL)
Field format: number, assumed µg/mL, no unit text.

Which Cmax is listed for `CNC(=O)c1ccc2cc([C@@]3(O)CCn4cncc43)ccc2c1` ?
1.58

###

protocol summary: clinical
run conditions: male, human, in vivo, 400 mg, C max
result type: Cmax (ng/mL)
Write down the numeric answer in ng/mL and omit the unit.

Entry CNC(=O)c1ccc2cc([C@@]3(O)CCn4cncc43)ccc2c1 [Orteronel] has what Cmax?
4700

###

protocol summary: clinical
run conditions: male, human, in vivo, 200 mg
result type: Tmax (h)
Lab book: enter the figure in h, no units written.

I am curious: what Tmax value has been reported for CNC(=O)c1ccc2cc([C@@]3(O)CCn4cncc43)ccc2c1 [Orteronel] ?
1
